# target: T1, MBP-Dbp2 1-52 (Saccharomyces cerevisiae, UniProt P24783 1-52)
# T1 sequence: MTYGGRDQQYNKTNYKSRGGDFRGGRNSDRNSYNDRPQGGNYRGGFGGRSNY
# experiment: fluorescence anisotropy; Anisotropy: 25 mM Tris-HCl pH 7.5, 20 mM NaCl/30 mM KCl, 2 mM MgCl2, 1 mM DTT, 5 nM labelled nucleic acid, 25 C, 5 min; EMSA: 25 mM Tris-HCl pH 7.5, 30 mM KCl
# condition: protein: recombinant; tags: MBP fusion; label: 3' FAM; G4
parameter measured: Kd (µM)

GGGUUAGGGUUAGGGUUAGGG (structured_RNA) [R-G4Tel]	0.026
